measured on: T1, RSV F ectodomain stabilized in the postfusion conformation (F ΔFP), subtype B (respiratory syncytial virus subtype B, UniProt P13843 26-109; P13843 147-524)
T1 construct: extracellular domain; Trimer; also called Postfusion subtype B
test name: BLI (Octet), IgG on AHQ sensor, 100 nM antigen
I'd be grateful if you could share measured Kd for these entries.
Numbers only, in nM.

binder="ADI-18982 (antibody, V domains shown, full-length IgG; also called Antibody Number 330) VH: QVQLVQSGAEVKKPGASVKVSCKASGYIFTSYGVSWVRQAPGQGLKWMGWISGYNGNTNYDQKLQGRVTMTTDTSTSTAYMELRSLTSDDTAVYYCARDSFSETGTGFPDFWGQGTLVTVSS VL: DIQMTQSPLSLPVTLGQPASISCRSSQSLEYSDGNTYLNWFQQRPGQSPRRLIYKVSNRDSGVPDRFSGSGSGTDFTLKISRVEAEDVGVYYCMQATHRPRTFGQGTKLEIK" measurement_type=Kd number=0.747

Next up:
What value of Kd has been reported for the following binder? ADI-18984 (antibody, V domains shown, full-length IgG) VH: QVQLQESGPGLVKPSETLSLTCTVSGASVTTNTYYWTWIRQPPGKELEWIGYIHHTGNTHYNPSLESRLTMSLDTSRNQFSLNLRSATTADTAVYYCARGEHFAYWWGNWGQGALVTVSS VL: DIRVTQSPSSVSASVGDRVTITCRASQGIARWLAWYQQKPGKAPKLLIYAASSLQGGVPSRFSGSGYGTDFTLTISSLQPEDFATYYCQQANSFPRTFGQGTKVEIK
0.659
